METHOD NOTES: Plasma pharmacokinetics, Cycle 1 (LC-MS, non-compartmental)
Type: in vivo, human
APPLIED CONDITIONS: human, plasma, po, 3 mg, Cycle 1 Day 1; 3 mg daily oral; read-out: T max, Median (range)
ATTRIBUTE MEASURED: Tmax (h)
The reply should contain only the number, in h.

stdin: What measured Tmax goes with CC(C)n1nc(-c2ccc3oc(N)nc3c2)c2c(N)ncnc21 [sapanisertib] ?
stdout: 2
